- Procedure summary: Cmax in HIV1 infected human at 1000 mg, po administered twice daily
- Format: ADME, organism-based
- Set-up: dose 1000 mg, route oral
- Test settings: in vivo
Measured quantity: Cmax (ng/mL)
Give bare numbers, in ng/mL.

May I ask what Cmax has been recorded for "CC(C)(C)NC(=O)[C@@H]1C[C@@H]2CCCC[C@@H]2CN1C[C@@H](O)[C@H](Cc1ccccc1)NC(=O)[C@H](CC(N)=O)NC(=O)c1ccc2ccccc2n1" ?
2620

----------
- Procedure summary: Tmax in HIV1 infected human at 1000 mg, po administered twice daily
- Type: ADME, organism-based
- Test settings: in vivo
Measured quantity: Tmax (h)
Give bare numbers, in h.

Fill blank: measured Tmax of the compound CC(C)(C)NC(=O)[C@@H]1C[C@@H]2CCCC[C@@H]2CN1C[C@@H](O)[C@H](Cc1ccccc1)NC(=O)[C@H](CC(N)=O)NC(=O)c1ccc2ccccc2n1 [SAQUINAVIR] is ____.
4

----------
- Procedure summary: Tmax in HIV1 infected human at 100 mg, po administered twice daily
- Format: ADME, organism-based
- Test settings: in vivo
Measured quantity: Tmax (h)
Give bare numbers, in h.

Need Tmax of "CC(C)c1nc(CN(C)C(=O)N[C@H](C(=O)N[C@@H](Cc2ccccc2)C[C@H](O)[C@H](Cc2ccccc2)NC(=O)OCc2cncs2)C(C)C)cs1" , thanks.
4

----------
- Procedure summary: Cmax in HIV1 infected human at 100 mg, po administered twice daily
- Format: ADME, organism-based
- Parameters: dose 100 mg, route oral
- Test settings: in vivo
Measured quantity: Cmax (ng/mL)
Numbers only, in ng/mL.

What does the record list as Cmax for CC(C)c1nc(CN(C)C(=O)N[C@H](C(=O)N[C@@H](Cc2ccccc2)C[C@H](O)[C@H](Cc2ccccc2)NC(=O)OCc2cncs2)C(C)C)cs1 [RITONAVIR] ?
880

----------
- Test system: Homo sapiens
- Procedure summary: CL/F in HIV1 infected human at 100 mg, po administered twice daily
- Format: ADME, organism-based
- Test settings: in vivo
Measured quantity: CL/F (L/h)
Answers are plain numbers, in L/h.

Entry "CC(C)c1nc(CN(C)C(=O)N[C@H](C(=O)N[C@@H](Cc2ccccc2)C[C@H](O)[C@H](Cc2ccccc2)NC(=O)OCc2cncs2)C(C)C)cs1" has what CL/F?
15.6
